test system: Escherichia coli TOP10; test: shrunken log2 fold change of peptide-encoding DNA abundance (4.5 h post-induction vs induction); higher = less antimicrobial activity (less host growth inhibition); settings: time post-induction: 4.5 h; library: site-saturation at positions 5, 18, 19, 20
# if value of shrunken log2 fold change reaches -0.07, tag label 1; if it stays below, tag label 0

Confirm if shrunken log2 fold change reported for the sequence RRIRGRPPRLPRPRPRPDMHPRP is -0.07 or above.
label 1

Decide: is the reported value of shrunken log2 fold change for RRIRARPPRLPRPRPRPQYLPRP equal to or greater than -0.07?
label 0

Please tell me: is the sequence RRIRCRPPRLPRPRPRPHNQPRP at or over -0.07 in terms of shrunken log2 fold change?
label 0

Record RRIRMRPPRLPRPRPRPYAVPRP ; criterion: shrunken log2 fold change no lower than -0.07. Met?
label 0

Does RRIRKRPPRLPRPRPRPCNSPRP have a reported shrunken log2 fold change of at least -0.07?
label 1

Please check the record RRIRDRPPRLPRPRPRPDRYPRP and state if its shrunken log2 fold change is at or above -0.07.
label 0

Please tell me: is the sequence RRIRARPPRLPRPRPRPQYYPRP at or over -0.07 in terms of shrunken log2 fold change?
label 0

Kindly determine if shrunken log2 fold change recorded for RRIRFRPPRLPRPRPRPIHGPRP is above or exactly -0.07.
label 1

# check: shrunken log2 fold change of RRIRTRPPRLPRPRPRPGGRPRP is greater than or equal to -0.07
label 1

Hi, just wondering whether RRIRIRPPRLPRPRPRPNYPPRP shows shrunken log2 fold change of -0.07 or higher.
label 0

Exam item: decide whether the reported shrunken log2 fold change for RRIRCRPPRLPRPRPRPKQLPRP is at least -0.07.
label 1

State whether the measured shrunken log2 fold change reaches -0.07, counting equality as reaching it, for RRIRNRPPRLPRPRPRPQCYPRP
label 0

Is reported shrunken log2 fold change greater than or equal to -0.07 here: RRIRVRPPRLPRPRPRPAHYPRP
label 0

Please indicate if the recorded shrunken log2 fold change for RRIRNRPPRLPRPRPRPCAIPRP meets or exceeds -0.07.
label 1

Is it the case that RRIRCRPPRLPRPRPRPEGLPRP has shrunken log2 fold change reaching or exceeding -0.07?
label 1

* * *

system: Escherichia coli TOP10; assay: shrunken log2 fold change of peptide-encoding DNA abundance (4.5 h post-induction vs induction); higher = less antimicrobial activity (less host growth inhibition); conditions: time post-induction: 4.5 h; library: site-saturation at positions 5, 18, 19, 20;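 further: peptides expressed intracellularly from a pBAD plasmid library in pooled LB shake-flask culture, induced with 0.3% L-arabinose, DNA abundance read by NGS, three biological replicates, DESeq2 with apeglm shrinkage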
VALUE KIND: shrunken log2 fold change
// print number alone

The sequence identified as RRIRSRPPRLPRPRPRPDCKPRP registered its shrunken log2 fold change at -0.0745

shrunken log2 fold change for RRIRRRPPRLPRPRPRPDHMPRP is -0.0178

Recorded result, RRIRWRPPRLPRPRPRPYPPPRP , shrunken log2 fold change: -0.332

Lab book: shrunken log2 fold change of RRIRRRPPRLPRPRPRPCISPRP noted as -0.0399

sequence RRIRPRPPRLPRPRPRPSASPRP , shrunken log2 fold change observed: 2.33

Quick note, shrunken log2 fold change for RRIRFRPPRLPRPRPRPIYNPRP landed at -0.624

The sequence identified as RRIRCRPPRLPRPRPRPIPQPRP registered its shrunken log2 fold change at 0.153

shrunken log2 fold change reading for RRIRERPPRLPRPRPRPIFMPRP : -0.1

Summary for this sequence, RRIRNRPPRLPRPRPRPFTHPRP : shrunken log2 fold change is -0.374

Noted for RRIRPRPPRLPRPRPRPQLMPRP : its shrunken log2 fold change reads -0.0192

Briefly, shrunken log2 fold change measured for RRIRARPPRLPRPRPRPHTCPRP : -0.29

For this sequence ( RRIRARPPRLPRPRPRPYWAPRP ), measured shrunken log2 fold change is -0.106

In plain terms, RRIRERPPRLPRPRPRPPDQPRP has a documented shrunken log2 fold change of 0.155

For RRIRHRPPRLPRPRPRPSNNPRP the sequence record lists shrunken log2 fold change as -0.549

Query RRIRFRPPRLPRPRPRPNEPPRP yields shrunken log2 fold change of -0.00783

Values from the supplement of paper PMC9112550
